- target: rat RXFP2 (Rattus norvegicus, UniProt F7EMH8)
- Sequence (F7EMH8 20-737): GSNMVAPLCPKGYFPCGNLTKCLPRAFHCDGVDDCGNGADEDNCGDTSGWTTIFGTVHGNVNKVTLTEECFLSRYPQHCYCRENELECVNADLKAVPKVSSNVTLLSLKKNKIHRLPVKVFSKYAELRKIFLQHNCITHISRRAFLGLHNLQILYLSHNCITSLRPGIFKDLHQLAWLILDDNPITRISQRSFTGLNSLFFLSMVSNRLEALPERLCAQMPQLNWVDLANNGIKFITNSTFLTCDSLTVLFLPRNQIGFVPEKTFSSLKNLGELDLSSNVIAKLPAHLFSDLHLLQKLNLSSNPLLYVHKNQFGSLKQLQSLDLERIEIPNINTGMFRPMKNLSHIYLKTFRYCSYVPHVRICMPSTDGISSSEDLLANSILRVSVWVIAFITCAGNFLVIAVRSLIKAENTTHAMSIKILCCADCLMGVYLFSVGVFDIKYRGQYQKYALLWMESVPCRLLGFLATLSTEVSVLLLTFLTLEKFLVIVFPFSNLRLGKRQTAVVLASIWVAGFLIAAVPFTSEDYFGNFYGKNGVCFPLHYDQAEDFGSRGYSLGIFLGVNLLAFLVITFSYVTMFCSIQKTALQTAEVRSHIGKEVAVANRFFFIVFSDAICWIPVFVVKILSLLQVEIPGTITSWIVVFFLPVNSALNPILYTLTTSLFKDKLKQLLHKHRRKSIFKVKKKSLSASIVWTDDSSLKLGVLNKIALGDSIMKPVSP
- test details: INSL3-stimulated CYP11B1 mRNA expression in H295R stably expressing rat RXFP2
- Assay type: cell-based
- Design: expressed in transfected cells
- condition info: INSL3 EC80 (3.5 nM), 48 h, qPCR; N = 2
pIC50: −log10 of the molar value.

molecule	pIC50
3F1: RXFP2 monoclonal antibody from hybridoma, recombinantly expressed in a rat IgG2b backbone (antibody, V domains shown) VH: QVQLKESGPGLVAPSQSLSITCTVSGFSLTDYGVSWIRQPPGKGLEWLGVIWGGGSTDYNPALKSRLSISKDNSKSQVFLKMNSLQADDTAMYYCVKHEGYYAMDYWGQGTSVTVSS VL: DIQMTQSPASLSVSVGETVTITCRASENIYSNLAWYQQKQGKSPHLLVYAVTNLADGVPSRFSGSGSGTQYSLKINSLQSEDFGSYYCQHFWGTPYTFGGGTKLEIK	9.57
4A5: RXFP2 monoclonal antibody from hybridoma, recombinantly expressed in a rat IgG2b backbone (antibody, V domains shown) VH: DVQLVESGGGLVQPGGSRKLSCAASGFTFSTFGMHWVRQAPEKGLEWVAYISSGSSTIYYADTVKGRFTISRDNPKNTLFLQMTSLRSDDTAMYYCSRSYYGSAHYFDYWGQGTTLTVSS VL: DIQMTQSPASLSVSVGETVTITCRASENIYSNLAWYQQKQGKSPQLLVYVATNLADGVPSRFSGSGSGTQYSLRINNLQSEDFGNYYCQHFWGTPPTFGGGTKLEIK	8.55
